- System: Staphylococcus aureus
- TEST: In vitro antibacterial activity against Staphylococcus aureus NCTC 10649M organism expressed as minimum inhibitory concentration (MIC)
- Type: functional
VALUE_TYPE: MIC (µg/mL)

[1] Cc1c(N2CC[C@H](N)C2)c(F)cn2c(=O)c(C(=O)O)ccc12
[2] Cc1c(N2CC[C@H](N)C2)c(F)cn2c(=O)c(C(=O)O)cc(CC3CC3)c12
[3] Cc1c(N2CC[C@H](N)C2)c(F)cn2c(=O)c(C(=O)O)cc(C(C)C)c12
Request: Sort the items above by MIC, starting with the smallest value. Provide the ranking by listing each label in its place in the requested order.
Result: 3, 2, 1
(3: 0.1 µg/mL, 2: 1.56 µg/mL, 1: 3.1 µg/mL)

====

- System: Enterococcus faecium
- TEST: In vitro antibacterial activity against Enterococcus faecium ATCC 8043 organism, activity expressed as minimum inhibitory concentration (MIC)
- Format: functional
VALUE_TYPE: MIC (µg/mL)

C=CCc1cc(C(=O)O)c(=O)n2cc(F)c(N3CC[C@H](N)C3)c(C)c12 ... 1.56
Cc1c(N2CC[C@H](N)C2)c(F)cn2c(=O)c(C(=O)O)cc(CC(C)(C)C)c12 ... 6.2
Cc1c(N2CC[C@H](N)C2)c(F)cn2c(=O)c(C(=O)O)cc(C(C)C)c12 ... 0.2
Cc1c(N2CC[C@H](N)C2)c(F)cn2c(=O)c(C(=O)O)cc(CC3CC3)c12 ... 6.2
Cc1cc(C(=O)O)c(=O)n2cc(F)c(N3CC[C@H](N)C3)c(C)c12 ... 0.39

[P] CCC(C)c1cc(C(=O)O)c(=O)n2cc(F)c(N3CC[C@H](N)C3)c(C)c12 (some centres undefined)
[Q] Cc1c(N2CC[C@H](N)C2)c(F)cn2c(=O)c(C(=O)O)cc(C3CCC3)c12
[R] C=Cc1cc(C(=O)O)c(=O)n2cc(F)c(N3CC[C@H](N)C3)c(C)c12
Request: Sequence the entries by MIC, beginning with the highest number. // rank by listing labels in the order requested
Result: P, R, Q
(P: 12.5 µg/mL, R: 1.56 µg/mL, Q: 0.39 µg/mL)

====

- Tested on: Enterococcus faecium
- TEST: In vitro antibacterial activity against Enterococcus faecium ATCC 8043 organism, activity expressed as minimum inhibitory concentration (MIC)
- Format: functional
VALUE_TYPE: MIC (µg/mL)

[I] Cc1c(N2CC[C@H](N)C2)c(F)cn2c(=O)c(C(=O)O)ccc12
[II] Cc1c(N2CC[C@H](N)C2)c(F)cn2c(=O)c(C(=O)O)cc(C3CC3)c12
Request: Please compare: I and II . Report which one has the smaller MIC value. Answer by stating the label of the chosen item.
Result: II

====

- Tested on: Staphylococcus aureus
- TEST: In vitro antibacterial activity against Staphylococcus aureus NCTC 10649M organism expressed as minimum inhibitory concentration (MIC)
- Format: functional
VALUE_TYPE: MIC (µg/mL)

Solved entries:
Cc1cc(C(=O)O)c(=O)n2cc(F)c(N3CC[C@H](N)C3)c(C)c12 ... 0.1
Cc1c(N2CC[C@H](N)C2)c(F)cn2c(=O)c(C(=O)O)cc(C3CCCC3)c12 ... 3.1
CCC(C)c1cc(C(=O)O)c(=O)n2cc(F)c(N3CC[C@H](N)C3)c(C)c12 (some centres undefined) ... 6.2
Cc1c(N2CC[C@H](N)C2)c(F)cn2c(=O)c(C(=O)O)cc(C3CCC3)c12 ... 0.1

[1] Cc1c(N2CC[C@H](N)C2)c(F)cn2c(=O)c(C(=O)O)cc(CC(C)(C)C)c12
[2] C=Cc1cc(C(=O)O)c(=O)n2cc(F)c(N3CC[C@H](N)C3)c(C)c12
[3] COCCc1cc(C(=O)O)c(=O)n2cc(F)c(N3CC[C@H](N)C3)c(C)c12
[4] Cc1c(N2CC[C@H](N)C2)c(F)cn2c(=O)c(C(=O)O)cc(C3CC3)c12 [ABT-719]
Request: Ascending by MIC, please: list the compounds accordingly. Use the labels to give the ranking in the order requested.
Result: 4, 2, 1, 3
(4: 0.01 µg/mL, 2: 0.78 µg/mL, 1: 1.56 µg/mL, 3: 50 µg/mL)

These entries and their values trace back to ChEMBL document CHEMBL1129922.
